Cited source for all entries: patent US10526316B2

- TARGET OR SYSTEM: kinase enzymes (Homo sapiens, UniProt P48736)
- Construct: purchased DiscoveRx Corporation, San Diego (contract service, KINOMEscan)
- Sequence (P48736 whole entry): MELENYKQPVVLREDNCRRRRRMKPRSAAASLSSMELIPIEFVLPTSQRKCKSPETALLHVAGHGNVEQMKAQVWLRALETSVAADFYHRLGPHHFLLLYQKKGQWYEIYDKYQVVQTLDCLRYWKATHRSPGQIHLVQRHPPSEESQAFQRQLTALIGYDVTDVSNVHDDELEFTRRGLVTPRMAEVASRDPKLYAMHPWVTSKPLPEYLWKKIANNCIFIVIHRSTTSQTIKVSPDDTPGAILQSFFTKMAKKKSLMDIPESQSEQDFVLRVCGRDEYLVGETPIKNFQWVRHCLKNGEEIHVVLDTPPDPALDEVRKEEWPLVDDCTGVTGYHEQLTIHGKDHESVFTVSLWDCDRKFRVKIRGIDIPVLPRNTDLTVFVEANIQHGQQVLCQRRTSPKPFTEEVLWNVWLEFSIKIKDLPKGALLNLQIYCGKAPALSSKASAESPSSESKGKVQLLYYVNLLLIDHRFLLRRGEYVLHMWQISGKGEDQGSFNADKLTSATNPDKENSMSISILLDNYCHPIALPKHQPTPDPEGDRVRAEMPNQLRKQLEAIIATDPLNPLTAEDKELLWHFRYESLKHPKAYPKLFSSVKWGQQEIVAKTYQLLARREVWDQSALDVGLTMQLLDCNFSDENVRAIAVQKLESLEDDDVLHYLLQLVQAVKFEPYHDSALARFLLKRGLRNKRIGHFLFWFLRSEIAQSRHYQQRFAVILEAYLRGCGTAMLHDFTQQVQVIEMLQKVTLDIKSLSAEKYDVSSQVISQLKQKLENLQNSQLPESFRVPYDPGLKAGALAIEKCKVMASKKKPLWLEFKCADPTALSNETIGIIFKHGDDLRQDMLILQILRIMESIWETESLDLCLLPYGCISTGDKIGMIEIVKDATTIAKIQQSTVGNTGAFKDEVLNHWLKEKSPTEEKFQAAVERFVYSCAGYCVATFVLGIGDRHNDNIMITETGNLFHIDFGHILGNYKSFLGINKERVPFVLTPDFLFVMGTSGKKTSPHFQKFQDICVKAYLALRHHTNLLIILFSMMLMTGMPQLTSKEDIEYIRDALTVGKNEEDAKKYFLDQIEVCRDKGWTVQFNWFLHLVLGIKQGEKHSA
- PROTOCOL: Enzyme binding assay (KINOMEscan, DiscoveRx), further kinases of Table A
- CONDITION NOTES: PIK3Cγ_h
Listed next: entries and their corresponding Kd.

{"MOLECULE": "CN(C)C(=O)c1cc([C@H]2CCCN2c2cc(F)cc(F)c2)c2nc(N3CCOCC3)cnc2c1", "RESULT COMPARATOR": "=", "Kd [µM]": 0.313}
{"MOLECULE": "COc1cc(NC(C)c2cc(C(=O)N3CCOCC3)cc3ncc(N4CCOCC4)nc23)cc(OC)c1 (stereo not shown)", "RESULT COMPARATOR": ">", "Kd [µM]": 30.2}
{"MOLECULE": "CNCCNC(=O)c1cc(NCc2cc(F)cc(F)c2)c2nc(N3CCOCC3)cnc2c1", "RESULT COMPARATOR": "=", "Kd [µM]": 5.01}
{"MOLECULE": "CC(c1cc(C(=O)N(C)C)cc2ncc(N3CCOCC3)nc12)N(C)c1cccc(Cl)c1 (stereo not shown)", "RESULT COMPARATOR": "=", "Kd [µM]": 8.13}
{"MOLECULE": "CC(Nc1cccc(C#N)c1)c1cc(C(=O)N2CCOCC2)cc2ncc(N3CCOCC3)nc12 (stereo not shown)", "RESULT COMPARATOR": "=", "Kd [µM]": 20}
{"MOLECULE": "CC(Nc1cccc(F)c1)c1cc(C(=O)N2CCC[C@H]2CO)cc2ncc(N3CCOCC3)nc12 (single isomer, unassigned)", "RESULT COMPARATOR": ">", "Kd [µM]": 30.2}
{"MOLECULE": "CC(Nc1cc(F)cc(F)c1)c1cc(C(=O)O)cc2ncc(N3CCOCC3)nc12 (single isomer, unassigned) [Compound 83b]", "RESULT COMPARATOR": "=", "Kd [µM]": 0.562}

====

These records show Kd for kinase enzymes (Homo sapiens, UniProt P42345).
PARAMETER MEASURED: Kd

{"COMPOUND": "Fc1cc(F)cc(N2CCCC2c2cncc3ncc(N4CCOCC4)nc23)c1 (single isomer, unassigned) [Compound 25]", "EXPERIMENTAL VALUE": "> 30.2 µM"}
{"COMPOUND": "CN(Cc1cc(F)cc(F)c1)c1cc(C(=O)O)cc2ncc(N3CCOCC3)nc12", "EXPERIMENTAL VALUE": "10.2 µM"}
{"COMPOUND": "CNCC(O)c1cc(C2CCCN2c2cc(F)cc(F)c2)c2nc(N3CCOCC3)cnc2c1 (stereo not shown)", "EXPERIMENTAL VALUE": "18.2 µM"}
{"COMPOUND": "C[C@@H](Nc1cc(F)cc(F)c1)c1cc(C(=O)NCCN(C)C)cc2ncc(N3CCOCC3)nc12 [Compound 184c]", "EXPERIMENTAL VALUE": "24 µM"}
{"COMPOUND": "CC(Nc1cc(F)cc(F)c1)c1cc(C(=O)O)cc2ncc(N3CCOCC3)nc12 (single isomer, unassigned) [Compound 83c]", "EXPERIMENTAL VALUE": "3.09 µM"}
{"COMPOUND": "CNCCNC(=O)c1cc(C(C)Nc2cc(F)cc(F)c2)c2nc(N3CCOCC3)cnc2c1 (single isomer, unassigned) [Compound 406b]", "EXPERIMENTAL VALUE": "> 30.2 µM"}
{"COMPOUND": "NC1CCN(C(=O)c2cc(C3CCCN3c3cc(F)cc(F)c3)c3nc(N4CCOCC4)cnc3c2)CC1 (stereo not shown)", "EXPERIMENTAL VALUE": "> 30.2 µM"}
{"COMPOUND": "CN(C)C(=O)c1cc(N2CCC2c2ccc(F)cc2)c2nc(N3CCOCC3)cnc2c1 (stereo not shown) [Compound 397]", "EXPERIMENTAL VALUE": "> 30.2 µM"}
{"COMPOUND": "Cc1c(F)cccc1CNc1cc(C(=O)N(C)CCNC(C)C)cc2ncc(N3CCOCC3)nc12", "EXPERIMENTAL VALUE": "16.6 µM"}
{"COMPOUND": "CC(Nc1cc(F)cc(F)c1)c1cc(C(=O)N2CCOCC2)cc2ncc(N3CCOCC3)nc12 (single isomer, unassigned)", "EXPERIMENTAL VALUE": "> 30.2 µM"}
{"COMPOUND": "CCN1CCN(C(=O)c2cc(C(C)Oc3cccc(F)c3)c3nc(N4CCOCC4)cnc3c2)CC1 (stereo not shown) [Compound 90]", "EXPERIMENTAL VALUE": "> 30.2 µM"}
{"COMPOUND": "CNCCN(C)C(=O)c1cc(N(C)Cc2cccc(F)c2C)c2nc(N3CCOCC3)cnc2c1", "EXPERIMENTAL VALUE": "19.1 µM"}
{"COMPOUND": "CC(Nc1ccc(F)c(F)c1)c1cc(C(=O)N2CCN3CCC[C@H]3C2)cc2ncc(N3CCOCC3)nc12 (single isomer, unassigned) [Compound 287a]", "EXPERIMENTAL VALUE": "> 30.2 µM"}
{"COMPOUND": "CC(Nc1ccc(F)c(F)c1)c1cc(C(=O)N(C)CCN(C)C)cc2ncc(N3CCOCC3)nc12 (single isomer, unassigned) [Compound 349b]", "EXPERIMENTAL VALUE": "> 30.2 µM"}
{"COMPOUND": "CN(C)CCNC(=O)c1cc(NCc2cc(F)cc(F)c2)c2nc(N3CCOCC3)cnc2c1", "EXPERIMENTAL VALUE": "20 µM"}
{"COMPOUND": "CC(C)NCCNC(=O)c1cc(C(C)Nc2cc(F)c(F)c(F)c2)c2nc(N3CCOCC3)cnc2c1 (single isomer, unassigned) [Compound 283a]", "EXPERIMENTAL VALUE": "> 30.2 µM"}
{"COMPOUND": "CCN1CCN(C(=O)c2cc(C(C)Oc3cccc(F)c3)c3nc(N4CCOCC4)cnc3c2)CC1 (single isomer, unassigned) [Compound 92]", "EXPERIMENTAL VALUE": "> 30.2 µM"}
{"COMPOUND": "CC(Nc1cc(F)cc(F)c1)c1cc(C(=O)N(C)CCN(C)C)cc2ncc(N3CCOCC3)nc12 (single isomer, unassigned) [Compound 182]", "EXPERIMENTAL VALUE": "> 30.2 µM"}
{"COMPOUND": "CC1CN(C(=O)c2cc(C(C)Nc3ccc(F)c(F)c3)c3nc(N4CCOCC4)cnc3c2)CC(C)N1 (stereo not shown) [Compound 357b]", "EXPERIMENTAL VALUE": "> 30.2 µM"}
{"COMPOUND": "CC(Nc1cc(F)cc(F)c1)c1cc(C(=O)O)cc2ncc(N3CCOCC3)nc12 (stereo not shown) [Compound 236]", "EXPERIMENTAL VALUE": "1.32 µM"}
{"COMPOUND": "CC(Nc1cccc(C#N)c1)c1cc(C(=O)N(C)C)cc2ncc(N3CCOCC3)nc12 (stereo not shown)", "EXPERIMENTAL VALUE": "> 30.2 µM"}
{"COMPOUND": "OCCNCc1cc(C2CCCN2c2cc(F)cc(F)c2)c2nc(N3CCOCC3)cnc2c1 (stereo not shown)", "EXPERIMENTAL VALUE": "> 10 µM"}
{"COMPOUND": "CC(Oc1ccc(Cl)c(F)c1)c1cc(C(=O)N(C)CCN(C)C)cc2ncc(N3CCOCC3)nc12 (single isomer, unassigned) [Compound 313a]", "EXPERIMENTAL VALUE": "> 30.2 µM"}
{"COMPOUND": "CN[C@H]1CCN(C(=O)c2cc(C(C)Nc3cc(F)c(F)c(F)c3)c3nc(N4CCOCC4)cnc3c2)C1 (single isomer, unassigned) [Compound 297a]", "EXPERIMENTAL VALUE": "> 30.2 µM"}
{"COMPOUND": "CN(C)C(=O)c1cc(N2CCC2c2ccc(F)cc2)c2nc(N3CCOCC3)cnc2c1 (single isomer, unassigned) [Compound 397a]", "EXPERIMENTAL VALUE": "15.5 µM"}
{"COMPOUND": "CC(Oc1ccc(F)c(F)c1)c1cc(C(=O)N2CCN3CCC[C@@H]3C2)cc2ncc(N3CCOCC3)nc12 (mixture of isomers)", "EXPERIMENTAL VALUE": "> 30.2 µM"}
{"COMPOUND": "CN(C)C(=O)c1cc(CNc2cc(F)cc(F)c2)c2nc(N3CCOCC3)cnc2c1", "EXPERIMENTAL VALUE": "> 30.2 µM"}
{"COMPOUND": "CN(C)C(=O)c1cc(N2CCCC2c2cc(F)cc(F)c2)c2nc(N3CCOCC3)cnc2c1 (stereo not shown) [Compound 395]", "EXPERIMENTAL VALUE": "18.2 µM"}
